target: Genome polyprotein (dengue virus type 2, UniProt P29990); assay type: functional, Thailand/16681/1984
Sequence (P29990 1346-1475 limits assumed): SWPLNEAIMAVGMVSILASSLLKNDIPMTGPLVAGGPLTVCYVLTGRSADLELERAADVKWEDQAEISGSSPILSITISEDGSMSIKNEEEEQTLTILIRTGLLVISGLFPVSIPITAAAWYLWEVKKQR
Sequence (P29990 1476-2093 limits assumed): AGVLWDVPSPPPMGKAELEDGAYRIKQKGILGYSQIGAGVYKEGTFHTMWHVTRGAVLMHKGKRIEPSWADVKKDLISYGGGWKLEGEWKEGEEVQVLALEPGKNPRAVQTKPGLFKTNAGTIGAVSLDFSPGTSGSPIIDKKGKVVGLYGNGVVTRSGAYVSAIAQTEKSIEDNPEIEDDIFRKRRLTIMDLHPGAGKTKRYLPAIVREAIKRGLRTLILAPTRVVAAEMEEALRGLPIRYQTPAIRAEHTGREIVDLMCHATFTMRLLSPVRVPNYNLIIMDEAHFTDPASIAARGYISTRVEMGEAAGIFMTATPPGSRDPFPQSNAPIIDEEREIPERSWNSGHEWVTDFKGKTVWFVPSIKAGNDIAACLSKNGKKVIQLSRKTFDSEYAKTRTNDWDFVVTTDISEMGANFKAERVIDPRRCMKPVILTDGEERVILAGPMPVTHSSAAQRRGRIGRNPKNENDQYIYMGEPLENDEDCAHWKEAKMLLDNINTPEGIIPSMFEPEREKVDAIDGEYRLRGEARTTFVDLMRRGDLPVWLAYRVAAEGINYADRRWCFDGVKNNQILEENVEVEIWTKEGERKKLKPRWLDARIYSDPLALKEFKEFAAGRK
value-kind: IC50

Query (molecule): NCc1cccc(CS(=O)(=O)c2cc(Cl)cc(NC(=O)OCc3ccccc3)c2)c1 ; field requested: IC50
> 100 µM

For the molecule shown here, O=C(Nc1ccc2c(c1)CNC2)C1CCCCC1 , give the reported IC50.
> 100 µM

Need IC50, item O=C(NC1CCOCC1)[C@H](Nc1ccc2c(c1)CNC2)c1cc(Cl)cc(C2CC2)c1
> 100 µM

Item under review: CNC(=O)[C@H](Nc1cccc(N)n1)c1cc(Cl)cc(CNC(=O)OC(C)(C)C)c1 . Reported IC50?
> 100 µM

Next, consider the following molecule.
Recorded IC50 for CCNC(=O)Nc1cc(Cl)cc(C(=O)Nc2cc(C)cc(CN)c2)c1 , please?
> 100 µM

====

target: Genome polyprotein (dengue virus type 2, UniProt P29990); type: functional, Thailand/16681/1984
value-kind: IC50

Known IC50 results, listed for orientation:
Which IC50 reading was recorded for the molecule COc1cc(Br)ccc1[C@@H](NC(=O)OCc1ccccc1)C(=O)Nc1cccc(CN)c1 ?
83.9 µM

Quick one: IC50 of O=C(Nc1ccc2c(c1)CNC2)c1cc(Cl)ccc1-n1ccnc1 ?
> 99.5 µM

Need IC50 of Cc1c(C(=O)Nc2cccc(C(=O)NC3CC3)c2)cc(C2CC2)n1C , thanks.
> 99.5 µM

// returns reported IC50 for input O=C(Nc1ccc2c(c1)CNC2)c1ncc(Br)s1
> 99.5 µM

Provide reported IC50 for each item, in the same order as listed.
1. CCn1cc(-c2cnc3ccnn3c2)nc(N2CC[C@@H](CO)C2)c1=O
2. O=C(Nc1cc(Cl)cc(C(=O)Nc2cnc3n2CCNC3)c1)OCc1ccccc1
3. NC(=O)c1cccc(NC(=O)[C@@H](NC(=O)c2ccc(Oc3ccc(C(F)(F)F)cc3)cc2)c2ccc(OCc3ccccc3)cc2)c1
4. CCn1c(=O)c(N2C[C@]3(CO)C[C@H]2CO3)nc2ccccc21
5. O=C(c1cc(Cl)cc2[nH]ncc12)N1CCC(C2CCNCC2)CC1

["> 99.5 µM", "> 99.5 µM", "> 99.5 µM", "> 99.5 µM", "> 99.5 µM"]

====

target: Genome polyprotein (dengue virus type 2, UniProt P29990); type: functional, Thailand/16681/1984
value-kind: IC50 (µM)
Give bare numbers, in µM.

Report IC50 for O=S(=O)(Nc1cccc(-c2nnn[nH]2)c1)c1cc(Cl)cc(-c2ccccc2)c1 please.
35.8

Proceeding to the next compound to report its IC50.
Which measured IC50 value corresponds to Cc1cc(Cl)c(C)c(C(=O)O)c1NS(=O)(=O)c1ccc(Oc2ccccc2Cl)cc1 ?
36.5

====

molecular target: UniProt:P29990; type: functional, Thailand/16681/1984
value-kind: IC50

Item under review: O=C(Nc1ccc2c(c1)CNC2)c1cc(Br)cc2ccccc12 . Reported IC50?
> 99.5 µM

I would be grateful if you could provide IC50 for each of the following entries.
1. O=C(O)c1cc(F)c(F)cc1NS(=O)(=O)c1ccc(Oc2ccccc2Cl)cc1
2. CCNC(=O)Nc1cc(Cl)cc(C(=O)Nc2ccc3c(c2)CNCCO3)c1
3. NC[C@@H]1CN(c2cc(N3CC[C@H](N)C3)cc3c2COB3O)C(=O)O1
4. N=C(N)NCc1ccc(NC(=O)Oc2ccccc2)cc1
5. Cc1nc2c(C(=O)Nc3ccc4c(c3)CNC4)cc(Cl)cc2[nH]1
6. Cn1ccnc1C(=O)N1CCC([C@H](NC(=O)OCc2ccccc2)C(=O)Nc2cccc(CN)c2)CC1
7. O=C(Nc1ccc2c(c1)CNC2)N1C[C@H](C2CC2)C[C@@H]1C1CC1

["11.2 µM", "> 99.5 µM", "> 99.5 µM", "> 59.8 µM", "> 99.5 µM", "> 99.5 µM", "> 99.5 µM"]
